system: 156681-154-R-J1 tumor spheroid viability; experiment: Anticancer human tumor 156681-154-R-J1 patient-derived melanoma cell line growth inhibition; settings: second compound 10 µM; first compound 0.0316 µM; stronger effect = lower value; spheroids with HUVEC and MSC;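 also: spheroids exposed to compounds for 7 days before readout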
Label key: rule met means viability, T/C under 80%; rule not met means viability, T/C of 80% or more.

Regarding Cc1cc(C)c(CNC(=O)c2cc(-c3ccc(CN4CCOCC4)cc3)cc3c2cnn3C2CCCC2)c(=O)[nH]1 + Cn1nnc2c(C(N)=O)ncn2c1=O , kindly confirm whether its viability, T/C is beneath 80%. rule not met

Is viability, T/C of CC1COCCN1c1cc(-c2ccnn2C)c2ccnc(-c3ccn[nH]3)c2n1 (stereo unspecified) + Cn1nnc2c(C(N)=O)ncn2c1=O strictly below 80%? rule met

Is viability, T/C strictly under 80% for the entry COc1cc(C)[nH]c(=O)c1CN1CCc2c(Cl)cc(C(OC)C3COC3)c(Cl)c2C1=O (stereo unspecified) + Cn1nnc2c(C(N)=O)ncn2c1=O ? rule not met

Consider the molecule COc1ccc([C@@H](O)c2cc(-c3ncnc4cc(N5CCOCC5)ccc34)c(F)cc2Cl)nn1 + Cn1nnc2c(C(N)=O)ncn2c1=O . Is its viability, T/C strictly less than 80%? rule met

Numbers sourced from PubChem BioAssay AID1845195.
